# Test system: Epidermal growth factor receptor (Homo sapiens), P00533 [UNDEFINED MUTATION]
# Sequence (P00533 whole entry, looked up, stated change not applied): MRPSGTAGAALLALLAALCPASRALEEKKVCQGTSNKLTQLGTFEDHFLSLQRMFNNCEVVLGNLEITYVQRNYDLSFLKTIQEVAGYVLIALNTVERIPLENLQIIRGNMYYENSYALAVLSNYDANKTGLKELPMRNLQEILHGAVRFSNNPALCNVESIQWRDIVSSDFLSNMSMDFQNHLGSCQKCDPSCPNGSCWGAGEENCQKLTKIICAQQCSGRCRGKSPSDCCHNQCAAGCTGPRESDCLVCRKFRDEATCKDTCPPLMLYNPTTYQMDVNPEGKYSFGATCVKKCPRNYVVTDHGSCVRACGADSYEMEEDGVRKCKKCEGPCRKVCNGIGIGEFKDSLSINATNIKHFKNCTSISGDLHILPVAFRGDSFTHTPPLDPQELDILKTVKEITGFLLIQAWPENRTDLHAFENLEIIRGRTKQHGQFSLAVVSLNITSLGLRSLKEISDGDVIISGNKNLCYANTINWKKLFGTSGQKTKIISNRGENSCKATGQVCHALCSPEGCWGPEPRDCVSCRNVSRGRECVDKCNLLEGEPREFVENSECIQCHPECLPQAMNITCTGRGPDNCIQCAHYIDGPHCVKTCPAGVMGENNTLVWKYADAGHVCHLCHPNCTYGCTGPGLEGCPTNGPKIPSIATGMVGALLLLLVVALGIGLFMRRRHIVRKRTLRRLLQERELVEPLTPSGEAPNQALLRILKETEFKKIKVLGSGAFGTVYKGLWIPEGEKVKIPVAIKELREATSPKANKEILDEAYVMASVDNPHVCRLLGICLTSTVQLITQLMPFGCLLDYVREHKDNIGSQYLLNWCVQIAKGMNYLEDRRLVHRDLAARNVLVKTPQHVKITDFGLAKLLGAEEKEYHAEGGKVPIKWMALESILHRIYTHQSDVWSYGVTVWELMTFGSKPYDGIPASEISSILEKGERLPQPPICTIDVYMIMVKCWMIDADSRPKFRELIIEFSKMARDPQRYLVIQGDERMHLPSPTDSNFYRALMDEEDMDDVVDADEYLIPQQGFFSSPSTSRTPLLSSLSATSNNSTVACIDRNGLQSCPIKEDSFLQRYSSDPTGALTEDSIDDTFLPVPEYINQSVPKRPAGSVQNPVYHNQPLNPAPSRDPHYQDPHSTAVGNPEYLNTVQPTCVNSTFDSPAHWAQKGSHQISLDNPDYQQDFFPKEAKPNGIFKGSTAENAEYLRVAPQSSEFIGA
# PROTOCOL DETAILS: Inhibition of EGFR exon 19 deletion mutant in human PC9 cells assessed as inhibition of ERK phosphorylation at P-p44/42 residue up to 1000 nmol/L after 6 hrs by Western blot analysis
# Assay type: cell-based
Activity calls are given as the source filed them. The calls are words filed in the database; no cut-off is given here.
MEASURED QUANTITY: inhibition

Sample records with inhibition:
C=CC(=O)Nc1cc(Nc2nccc(-c3cn(C)c4ccc(F)cc34)n2)c(OC)cc1N(C)CCN(C)C: Active
C=CC(=O)Nc1cc(Nc2nccc(-c3cn(C)c4ccc(F)cc34)n2)c(OC)cc1N(C)CC[N+](C)(C)[O-]: Active
C=CC(=O)Nc1cc(Nc2nccc(-c3cn(C)c4ccccc34)n2)c(OC)cc1N(C)CC[N+](C)(C)[O-]: Active
C=CC(=O)Nc1cc(Nc2nccc(-c3cn(C)c4c(F)cccc34)n2)c(OC)cc1N(C)CC[N+](C)(C)[O-]: Active

Lookup: Entry under review: C=CC(=O)Nc1cc(Nc2nccc(-c3cn(C)c4c(F)cccc34)n2)c(OC)cc1N(C)CCN(C)C . Reported inhibition?
Found: Active

* * *

# MEASUREMENT TARGET: Epidermal growth factor receptor (Homo sapiens, UniProt P00533)
MEASURED QUANTITY: IC50 (nM)
Supply the numeric figure in nM, leaving out any unit text.

Lookup: I'd like to know its IC50. The molecule in question is C=CC(=O)Nc1cc(Nc2nccc(-c3cn(C)c4c(F)cccc34)n2)c(OC)cc1N(C)CCN(C)C
Found: 175

* * *

# Tested on: Epidermal growth factor receptor (Homo sapiens), P00533 [UNDEFINED MUTATION]
# PROTOCOL DETAILS: Inhibition of EGFR exon 19 deletion mutant in human PC9 cells assessed as inhibition of AKT phosphorylation at S473 residue up to 1000 nmol/L after 6 hrs by Western blot analysis
# Format: cell-based
Calls of active or inactive are those of the source. The calls are words filed in the database; no cut-off is given here.
MEASURED QUANTITY: inhibition

// known answers, use as guide
C=CC(=O)Nc1cc(Nc2nccc(-c3cn(C)c4ccc(F)cc34)n2)c(OC)cc1N(C)CCN(C)C: Active
C=CC(=O)Nc1cc(Nc2nccc(-c3cn(C)c4c(F)cccc34)n2)c(OC)cc1N(C)CC[N+](C)(C)[O-]: Active
C=CC(=O)Nc1cc(Nc2nccc(-c3cn(C)c4ccc(F)cc34)n2)c(OC)cc1N(C)CC[N+](C)(C)[O-]: Active
C=CC(=O)Nc1cc(Nc2nccc(-c3cn(C)c4ccccc34)n2)c(OC)cc1N(C)CC[N+](C)(C)[O-]: Active

Next molecule, inhibition to be filled in.
Lookup: Recorded inhibition for C=CC(=O)Nc1cc(Nc2nccc(-c3cn(C)c4c(F)cccc34)n2)c(OC)cc1N(C)CCN(C)C , please?
Found: Active

* * *

# PROTOCOL DETAILS: Solubility of the compound in PBS at pH 7.4
# Assay type: physicochemical
MEASURED QUANTITY: solubility

Examples with their reported solubility follow.
C=CC(=O)Nc1cc(Nc2nccc(-c3cn(C)c4ccccc34)n2)c(OC)cc1N(C)CCN(C)C [OSIMERTINIB]: < 100 µg/mL
C=CC(=O)Nc1cc(Nc2nccc(-c3cn(C)c4ccc(F)cc34)n2)c(OC)cc1N(C)CC[N+](C)(C)[O-]: < 100 µg/mL
C=CC(=O)Nc1cc(Nc2nccc(-c3cn(C)c4c(F)cccc34)n2)c(OC)cc1N(C)CC[N+](C)(C)[O-]: > 10000 µg/mL

Lookup: Item C=CC(=O)Nc1cc(Nc2nccc(-c3cn(C)c4ccccc34)n2)c(OC)cc1N(C)CC[N+](C)(C)[O-] has what recorded solubility?
Found: > 10000 µg/mL

Lookup: Also C=CC(=O)Nc1cc(Nc2nccc(-c3cn(C)c4c(F)cccc34)n2)c(OC)cc1N(C)CCN(C)C ?
Found: < 100 µg/mL

Lookup: Same lookup for C=CC(=O)Nc1cc(Nc2nccc(-c3cn(C)c4ccc(F)cc34)n2)c(OC)cc1N(C)CCN(C)C , please.
Found: < 100 µg/mL

* * *

# MEASUREMENT TARGET: Epidermal growth factor receptor (Homo sapiens, UniProt P00533, L858R/T790M)
# Sequence (P00533 25-1210 T790M/L858R limits assumed): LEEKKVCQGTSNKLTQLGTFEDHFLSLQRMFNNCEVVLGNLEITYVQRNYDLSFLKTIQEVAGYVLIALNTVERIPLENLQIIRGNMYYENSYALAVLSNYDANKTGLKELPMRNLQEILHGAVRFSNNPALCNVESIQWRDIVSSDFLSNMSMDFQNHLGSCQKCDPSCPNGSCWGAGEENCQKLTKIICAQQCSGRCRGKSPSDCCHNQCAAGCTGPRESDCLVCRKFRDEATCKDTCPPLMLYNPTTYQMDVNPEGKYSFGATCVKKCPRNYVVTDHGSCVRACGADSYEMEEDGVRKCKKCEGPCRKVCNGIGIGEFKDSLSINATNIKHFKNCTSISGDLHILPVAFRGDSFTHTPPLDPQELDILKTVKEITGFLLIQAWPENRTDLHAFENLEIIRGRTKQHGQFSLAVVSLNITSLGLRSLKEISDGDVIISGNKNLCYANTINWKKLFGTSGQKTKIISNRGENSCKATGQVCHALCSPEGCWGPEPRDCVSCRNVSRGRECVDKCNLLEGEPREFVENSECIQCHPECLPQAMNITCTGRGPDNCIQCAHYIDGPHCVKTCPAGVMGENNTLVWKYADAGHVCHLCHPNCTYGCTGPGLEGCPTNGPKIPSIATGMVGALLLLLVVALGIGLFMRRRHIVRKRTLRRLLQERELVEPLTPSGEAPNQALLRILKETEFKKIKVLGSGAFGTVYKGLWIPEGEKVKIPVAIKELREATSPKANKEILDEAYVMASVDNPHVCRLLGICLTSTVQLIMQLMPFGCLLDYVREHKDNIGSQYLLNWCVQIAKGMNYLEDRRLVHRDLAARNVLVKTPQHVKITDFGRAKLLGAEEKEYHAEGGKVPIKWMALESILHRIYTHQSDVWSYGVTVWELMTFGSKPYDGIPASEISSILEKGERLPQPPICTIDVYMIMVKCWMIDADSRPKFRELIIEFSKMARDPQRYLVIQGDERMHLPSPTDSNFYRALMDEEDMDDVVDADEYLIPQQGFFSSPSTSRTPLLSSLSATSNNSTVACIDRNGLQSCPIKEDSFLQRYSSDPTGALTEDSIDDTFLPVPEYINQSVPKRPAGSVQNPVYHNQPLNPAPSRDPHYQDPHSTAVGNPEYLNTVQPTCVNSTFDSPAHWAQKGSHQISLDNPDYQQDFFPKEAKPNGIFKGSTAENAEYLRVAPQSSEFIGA
# PROTOCOL DETAILS: Inhibition of EGFR L858R/T790M mutant (unknown origin) using Tyr 4 peptide as substrate in presence of ATP by Z-LYTE kinase assay
MEASURED QUANTITY: IC50 (nM)

Below, each entry is followed by its recorded IC50 result.
C=CC(=O)Nc1cc(Nc2nccc(-c3cn(C)c4c(F)cccc34)n2)c(OC)cc1N(C)CCN(C)C: 6
C=CC(=O)Nc1cc(Nc2nccc(-c3cn(C)c4ccc(F)cc34)n2)c(OC)cc1N(C)CCN(C)C: 4.9

(a) C=CC(=O)Nc1cc(Nc2nccc(-c3cn(C)c4ccc(F)cc34)n2)c(OC)cc1N(C)CC[N+](C)(C)[O-]
(b) C=CC(=O)Nc1cc(Nc2nccc(-c3cn(C)c4ccccc34)n2)c(OC)cc1N(C)CC[N+](C)(C)[O-]
Lookup: Could you please tell me which of these two has the higher IC50: a or b ? Refer to your chosen entry by its label in the reply.
Found: a

Every entry's value here was drawn from ChEMBL document CHEMBL4043110.
